- Tested on: CSF1R
- Test Parameters: concentration: 1 μM, replicates: in singlicate; n = 1
Label not fulfilled if %Inh falls below 10%; label fulfilled in every other case.

>  <Compound>
O=C(c1ccc(-c2cc(-c3c[nH]nc3-c3ccccn3)ccn2)cc1)N1CCCC1 [GW792479]

>  <Subject Of Test>
CSF1R

>  <Label>
not fulfilled

$$$$
>  <Compound>
O=C(Nc1ccccc1F)NC1CCN(c2ccnc(Nc3ccc(F)cc3)n2)C1 (stereo not drawn) [GSK1379722]

>  <Subject Of Test>
CSF1R

>  <Label>
not fulfilled

$$$$
>  <Compound>
Cl.Cn1ccc(-c2cccc(Nc3ccnc4cc(-c5nccs5)ccc34)c2)n1 [GW525701]

>  <Subject Of Test>
CSF1R

>  <Label>
not fulfilled

$$$$
>  <Compound>
Cl.Fc1ccccc1COc1ccc(Nc2ncnc3ccc(-c4nnc(C(F)(F)F)o4)cc23)cc1Cl [GW424170]

>  <Subject Of Test>
CSF1R

>  <Label>
not fulfilled

$$$$
>  <Compound>
Clc1ccc(-c2cc(-c3c[nH]nc3-c3ccccn3)ccn2)cc1 [GW681251]

>  <Subject Of Test>
CSF1R

>  <Label>
not fulfilled

$$$$
>  <Compound>
O=C(Nc1ccccc1)Nc1ccc(Oc2ccc3nccn3n2)cc1

>  <Subject Of Test>
CSF1R

>  <Label>
fulfilled

$$$$
>  <Compound>
C[C@@H]1CCN(C(=O)CO)C[C@@H]1N(C)c1ncnc2[nH]ccc12

>  <Subject Of Test>
CSF1R

>  <Label>
not fulfilled

$$$$
>  <Compound>
COc1cc2ncnc(Nc3ccc(OCc4ccccc4Br)c(Cl)c3)c2cc1OC.Cl [GI261590]

>  <Subject Of Test>
CSF1R

>  <Label>
not fulfilled

$$$$
>  <Compound>
Oc1ccc2ncnc(Nc3ccc(OCc4ccccc4)cc3)c2c1 [GI262866]

>  <Subject Of Test>
CSF1R

>  <Label>
not fulfilled

$$$$
>  <Compound>
CSc1ccc(NC2=C(c3ccccc3Cl)C(=O)NC2=O)cc1 [SB-342411]

>  <Subject Of Test>
CSF1R

>  <Label>
not fulfilled

$$$$
>  <Compound>
Fc1cccc(COc2ccc(Nc3ncnc4sc(-c5ccc[nH]5)cc34)cc2Cl)c1 [GW707818]

>  <Subject Of Test>
CSF1R

>  <Label>
fulfilled

$$$$
>  <Compound>
COc1ccc(NC(=O)c2ccc(-c3cc(-c4nnc(C)o4)ccc3C)cc2)cc1 [GW595885]

>  <Subject Of Test>
CSF1R

>  <Label>
fulfilled

$$$$
>  <Compound>
COc1ccc(NC(=O)Nc2ccc(C)c(-c3ccc(C(=O)Nc4ccncc4)cc3)c2)cc1 [GSK1398475]

>  <Subject Of Test>
CSF1R

>  <Label>
fulfilled

$$$$
>  <Compound>
NC(=O)c1sc(-n2cnc3ccccc32)cc1OCc1ccccc1F [GSK1024306]

>  <Subject Of Test>
CSF1R

>  <Label>
not fulfilled

$$$$
>  <Compound>
O=C(NCCCN1CCCC1=O)c1cnc(NCc2cc(Cl)ccc2Cl)nc1NC1CCNCC1

>  <Subject Of Test>
CSF1R

>  <Label>
fulfilled

$$$$
>  <Compound>
O=C(Nc1n[nH]c2nc(-c3ccco3)c(Br)cc12)c1ccc(CN2CCCC2)cc1.O=C(O)[C@H](O)[C@@H](O)C(=O)O [SB-742352]

>  <Subject Of Test>
CSF1R

>  <Label>
fulfilled

$$$$
>  <Compound>
Nc1nc(-c2ccccn2)c(-c2ccnc3ccccc23)s1 [GW548057]

>  <Subject Of Test>
CSF1R

>  <Label>
fulfilled

$$$$
>  <Compound>
CCn1c(-c2ccncc2)nc2cnccc21 [SB-735216]

>  <Subject Of Test>
CSF1R

>  <Label>
not fulfilled

$$$$
>  <Compound>
Fc1cccc(COc2ccc(Nc3ncnc4nn5ccccc5c34)cc2Cl)c1 [GW689066]

>  <Subject Of Test>
CSF1R

>  <Label>
not fulfilled

$$$$
>  <Compound>
CCc1nc(-c2cccc(N(C)S(=O)(=O)c3ccccc3)c2)c(-c2ccnc(Nc3ccc(N4CCN(C(C)=O)CC4)nc3)n2)s1 [GSK1645895]

>  <Subject Of Test>
CSF1R

>  <Label>
fulfilled

$$$$
>  <Compound>
Fc1ccc(Nc2nccc(-c3c(-c4ccc(Cl)cc4)nn4ncccc34)n2)cc1F [GW829058]

>  <Subject Of Test>
CSF1R;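 also: KINOMEscan kinase panel screen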

>  <Label>
fulfilled

$$$$
